- target desc: SAE (Homo sapiens (Human))
- Sequence (Q9UBT2 whole entry): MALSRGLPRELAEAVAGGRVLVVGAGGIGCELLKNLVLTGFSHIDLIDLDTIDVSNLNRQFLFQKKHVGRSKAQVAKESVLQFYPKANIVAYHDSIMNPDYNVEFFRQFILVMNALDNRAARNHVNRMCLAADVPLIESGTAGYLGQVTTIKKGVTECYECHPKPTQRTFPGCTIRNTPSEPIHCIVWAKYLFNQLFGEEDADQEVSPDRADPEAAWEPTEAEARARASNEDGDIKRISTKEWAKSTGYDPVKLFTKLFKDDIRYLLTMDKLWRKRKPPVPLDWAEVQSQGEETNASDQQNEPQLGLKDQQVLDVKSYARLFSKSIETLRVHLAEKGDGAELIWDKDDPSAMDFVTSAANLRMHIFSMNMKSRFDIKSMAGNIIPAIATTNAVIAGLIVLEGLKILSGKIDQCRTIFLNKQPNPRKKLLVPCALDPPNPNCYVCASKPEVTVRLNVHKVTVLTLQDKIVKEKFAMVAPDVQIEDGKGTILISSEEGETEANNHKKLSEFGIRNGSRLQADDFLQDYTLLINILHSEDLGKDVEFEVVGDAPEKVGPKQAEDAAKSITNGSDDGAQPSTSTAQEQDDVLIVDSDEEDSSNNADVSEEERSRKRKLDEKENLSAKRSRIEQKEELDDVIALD
- Sequence (Q9UBE0 whole entry partner): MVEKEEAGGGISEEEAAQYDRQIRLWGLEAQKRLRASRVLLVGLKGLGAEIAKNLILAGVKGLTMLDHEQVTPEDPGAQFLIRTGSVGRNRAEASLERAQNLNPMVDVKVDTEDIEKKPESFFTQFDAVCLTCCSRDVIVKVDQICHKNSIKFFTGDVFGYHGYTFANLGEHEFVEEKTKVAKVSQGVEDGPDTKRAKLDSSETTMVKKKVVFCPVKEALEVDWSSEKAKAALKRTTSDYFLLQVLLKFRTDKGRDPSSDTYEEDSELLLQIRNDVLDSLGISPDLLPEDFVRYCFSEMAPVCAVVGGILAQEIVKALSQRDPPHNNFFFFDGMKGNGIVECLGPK
- protocol details: In vitro inhibitory activity assay against SAE (SUMO-2/3 immunofluorescence in HCT116 cells)
- Format: cell-based
- test conditions: 6 h incubation, class symbols, read-out: SUMO IF IC50
pIC50: −log10 of the molar value.
compounds and their reported pIC50

Example entries and their recorded answers appear below.
* NS(=O)(=O)OC[C@H]1C[C@@H](Nc2ncncc2C(=O)c2cc3c(s2)C=CC32OCCc3ccc(F)cc32)C[C@@H]1O (stereo partly shown) | 6.70 to 7.30
* CC(C)N1Cc2sc(C(=O)c3cncnc3N[C@@H]3C[C@H](COS(N)(=O)=O)[C@@H](O)C3)cc2[C@]2(C1)OCCc1ccc(F)cc12 | ≥ 7.30

pIC50 recorded for this compound, "NS(=O)(=O)OC[C@H]1C[C@@H](Nc2ncncc2C(=O)c2cc3c(s2)CC[C@]32NCCc3cc(F)c(Cl)cc32)C[C@@H]1O" , is ≥ 7.30

pIC50 recorded for this compound, N#Cc1cc2c(cc1Cl)C1(CCCc3sc(C(=O)c4cncnc4N[C@@H]4C[C@H](COS(N)(=O)=O)[C@@H](O)C4)cc31)NCC2 (stereo partly shown) , is 6.70 to 7.30

pIC50 recorded for this compound, NS(=O)(=O)OC[C@H]1C[C@@H](Nc2ncncc2C(=O)c2cc3c(s2)CCC32NCCc3cc(F)c(F)cc32)C[C@@H]1O (stereo partly shown) , is 6.70 to 7.30

pIC50 recorded for this compound, CN1Cc2sc(C(=O)c3cncnc3N[C@@H]3C[C@H](COS(N)(=O)=O)[C@@H](O)C3)cc2C2(C1)NCCc1ccc(Cl)cc12 (stereo partly shown) , is ≥ 7.30

pIC50 recorded for this compound, "NS(=O)(=O)OC[C@H]1C[C@@H](Nc2ncncc2C(=O)c2cc3c(s2)OC[C@@]32NCCc3ccccc32)C[C@@H]1O" , is < 6.70

pIC50 recorded for this compound, "NS(=O)(=O)OC[C@H]1C[C@@H](Nc2ncncc2C(=O)c2cc3c(s2)CCC[C@]32OCCc3ccc(Cl)cc32)C[C@@H]1O" , is ≥ 7.30

pIC50 recorded for this compound, NS(=O)(=O)OC[C@H]1C[C@@H](Nc2ncncc2C(=O)c2nc3c(s2)COCC32NCCc3ccc(Cl)cc32)C[C@@H]1O (stereo partly shown) , is < 6.70

pIC50 recorded for this compound, "N#Cc1ccc2c(c1)[C@]1(C=Cc3sc(C(=O)c4cncnc4N[C@@H]4C[C@H](COS(N)(=O)=O)[C@@H](O)C4)cc31)OCC2" , is < 6.70

pIC50 recorded for this compound, N#Cc1ccc2c(c1)C1(C=Cc3sc(C(=O)c4cncnc4N[C@@H]4C[C@H](COS(N)(=O)=O)[C@@H](O)C4)cc31)OCC2 (stereo partly shown) , is 6.70 to 7.30

pIC50 recorded for this compound, NS(=O)(=O)OC[C@H]1C[C@@H](Nc2ncncc2C(=O)c2cc3c(s2)CCCC32NCCc3cc(Cl)c(F)cc32)C[C@@H]1O (stereo partly shown) , is 6.70 to 7.30

pIC50 recorded for this compound, "NS(=O)(=O)OC[C@H]1C[C@@H](Nc2ncncc2C(=O)c2cc3c(s2)C(=O)C[C@@]32NCCc3ccc(Cl)cc32)C[C@@H]1O" , is < 6.70

pIC50 recorded for this compound, "N#Cc1ccc2c(c1)[C@@]1(C=Cc3sc(C(=O)c4cncnc4N[C@@H]4C[C@H](COS(N)(=O)=O)[C@@H](O)C4)cc31)OCC2" , is ≥ 7.30

pIC50 recorded for this compound, NS(=O)(=O)OC[C@H]1C[C@@H](Nc2ncncc2C(=O)c2cc3c(s2)CCCC32NC(=O)Cc3ccc(Cl)cc32)C[C@@H]1O (stereo partly shown) , is < 6.70

pIC50 recorded for this compound, "CC(C)N1Cc2sc(C(=O)c3cncnc3N[C@@H]3C[C@H](COS(N)(=O)=O)[C@@H](O)C3)cc2[C@@]2(C1)OCCc1ccc(F)cc12" , is < 6.70

----------
- target desc: SAE (Homo sapiens (Human))
- protocol details: In vitro inhibitory activity assay against SAE (SUMO-2/3 immunofluorescence in HCT116 cells)
- Type: cell-based
- test conditions: 6 h incubation, numeric values, read-out: SUMO IF IC50
result type: IC50

Example entries and their recorded answers appear below.
• NS(=O)(=O)OC[C@H]1C[C@@H](Nc2ncncc2C(=O)c2cc3c(s2)COC[C@@]32NCCc3ccc(F)cc32)C[C@@H]1O = > 1000 nM
• NS(=O)(=O)OC[C@H]1C[C@@H](Nc2ncncc2C(=O)c2cc3c(s2)CSC[C@@]32NCCc3ccc(Cl)cc32)C[C@@H]1O = > 1000 nM

// below: IC50 requested for another compound
IC50 recorded for this compound, "NS(=O)(=O)OC[C@H]1C[C@@H](Nc2ncncc2C(=O)c2cc3c(s2)CN(CC(F)(F)F)C[C@@]32NCCc3ccc(Cl)cc32)C[C@@H]1O" , is > 1000 nM
